Value source: patent US8258099B2

target: hPin1 (Homo sapiens); construct: The protease free assay ensures reliable measurement of IC50 values for the full-length hPin1; experiment: Protease free PPIase assay, hPin1; type: biochemical; details: blockade of PPIase activity of full-length hPin1, protease free assay, 10° C.; read-out: IC50
Sequence (Q13526 whole entry): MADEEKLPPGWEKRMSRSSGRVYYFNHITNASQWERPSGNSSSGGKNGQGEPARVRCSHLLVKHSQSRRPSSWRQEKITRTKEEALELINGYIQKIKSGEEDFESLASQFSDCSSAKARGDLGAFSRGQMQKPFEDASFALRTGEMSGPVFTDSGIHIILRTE
quantity: IC50

Qu. Using the record for Ac-Lys(Nε-biotinoyl)-Ala-Ala-Xaa-Thr(PO3H2)-Yaa-Zaa-Gln-NH2 with Xaa Bth, Yaa Pro, Zaa Cha [Peptide 3] , report its IC50.
Ans. > 50 µM
